Measured values drawn from paper PMC10447463 for this set.

protocol: Zeta-potential measurement
Type: physicochemical
experimental conditions: zeta potential of peptide assemblies
Everything with Zeta-Pot. lower than 8 is rule not met; everything else, including exactly 8, is rule met.

Recorded results for 2 substances are shown here.
INSERT INTO assay_data (substance, label_class) VALUES
  ('RGDKIKIQINM', 'rule met'),
  ('RGDKIKIQI', 'rule not met');

q: Please check the record `MKIKIQINMWQ` and state if its Zeta-Pot. is at or above 8.
a: rule met

q: Please check the record `KFKFQF` and state if its Zeta-Pot. is at or above 8.
a: rule not met

q: Please check the record `KWKWQW` and state if its Zeta-Pot. is at or above 8.
a: rule not met
